Data provenance is patent US12534496B2.

Assay: Solubility of CHP hydrate (Pattern 2) in water/acetone
Format: physicochemical
Details: water/acetone 0.5/9.5 (v/v), 50 °C, organic solvent or mixture
test.readout: solubility (mg/mL)
Respond with the bare value in mg/mL.

I would be grateful if you could share the reported solubility for O=C1N[C@@H](Cc2cnc[nH]2)C(=O)N2CCC[C@@H]12 .
49

----------
Experiment: Solubility of CHP hydrate (Pattern 2) in water/acetone
Format: physicochemical
Settings: water/acetone 6/4 (v/v), 5 °C, aqueous with cosolvent or surfactant or cyclodextrin
test.readout: solubility (mg/mL)
Respond with the bare value in mg/mL.

I would be grateful if you could share the reported solubility for O=C1N[C@@H](Cc2cnc[nH]2)C(=O)N2CCC[C@@H]12 [Pattern 2] .
206
